Values were extracted from paper PMC9934072.

target: T1, LanCL1 Wild Type (human LanC-like protein 1) (human, UniProt O43813 1-399); experiment: fluorescence polarisation; competition: 20 μM LanCL1 WT, 20 nM fluorescein-Dha-Erk, acetyl peptide from 1000 μM in 2-fold dilutions; 15 min incubation; triplicates; dose-response fit, Ki = IC50/(1+[L]/Kd); conditions: both partners purified
T1 construct: LanC-like protein 1 (LanCL1), human; also called LanCL1 WT; WT-LanCL1; source: E. coli Rosetta 2 (DE3), purified (HisTrap Ni-NTA, PD-10 desalting)
T1 sequence (O43813 whole entry): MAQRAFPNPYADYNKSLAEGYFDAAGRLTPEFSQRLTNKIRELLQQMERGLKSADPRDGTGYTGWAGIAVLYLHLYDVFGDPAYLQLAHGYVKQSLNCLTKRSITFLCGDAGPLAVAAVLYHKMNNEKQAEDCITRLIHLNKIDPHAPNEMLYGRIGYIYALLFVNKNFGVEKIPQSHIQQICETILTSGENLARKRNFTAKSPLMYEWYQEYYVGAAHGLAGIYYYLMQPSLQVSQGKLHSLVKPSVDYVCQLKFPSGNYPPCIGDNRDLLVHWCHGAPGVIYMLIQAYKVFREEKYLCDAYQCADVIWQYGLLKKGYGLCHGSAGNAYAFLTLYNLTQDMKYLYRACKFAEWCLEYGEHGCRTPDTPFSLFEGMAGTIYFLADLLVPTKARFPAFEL
Ends that are not written are not given here.
observedProperty: IC50 (µM)
Answers are plain numbers, in µM.

Q) Assign IC50 to the following record: Ac-DHTGFLAEYVATR (Numbers count on: the synthetic 13-mer; Its preparation is not described; also called Ac-Ala-Erk) [acetyl-Ala-Erk peptide]
A) 850
